These data points were gathered from PubChem BioAssay (NCI).

Record form. Attribute: TGI. Fill in for each entry.
test system: RXF-631 renal; assay: NCI tumour cell line growth inhibition, 48 h

Which TGI value belongs to Cc1c(C(=O)O)oc2ccc([N+](=O)[O-])cc12 ?
> 100 µM

Which TGI value belongs to CN(C)C(=S)/N=c1\ssc(=S)n1Cc1ccncc1 ?
38.4 µM

Which TGI value belongs to COc1ccc2[nH]c3c(c2c1)[C@H](C)C[C@@H]1C(=O)N(c2ccccc2)C(=O)[C@H]31 ?
58.7 µM

Which TGI value belongs to CC(C)(C)C(=O)[CH-]C(=O)C(C)(C)C.CC(C)(C)C(=O)[CH-]C(=O)C(C)(C)C.CN(C)c1ccc([O-])cc1.CN(C)c1ccc([O-])cc1.[Ti+4] ?
> 100 µM

Which TGI value belongs to Cc1cn(C2CC(N(C)C)C(CO)O2)c(=O)[nH]c1=O (stereo unspecified) ?
> 100 µM

Which TGI value belongs to Nc1ncnc2c1ncn2CC(O)CO (stereo unspecified) ?
> 100 µM

Which TGI value belongs to C=C(CN(C)C)C(=O)c1ccccc1[N+](=O)[O-] ?
34.4 µM

Which TGI value belongs to CC(C)(Oc1ccc(/C=C/C(=O)c2ccc(Cl)cc2)cc1)C(=O)Nc1c(Cl)cccc1Cl ?
45.3 µM

Which TGI value belongs to CCNC(=O)COc1ccc(Cl)cc1Cl ?
> 100 µM

Which TGI value belongs to C=CC(OCC)(OCC)OCC ?
> 100 µM

Which TGI value belongs to CC(=O)OCC1OC(N2C(=O)C(=O)c3ccccc32)C(OC(C)=O)C(OC(C)=O)C1OC(C)=O (stereo unspecified) ?
> 100 µM
